Test system: P388 leukemia ip, CD2F1 mice, survival T/C
measurement.protocol: NCI In Vivo Anticancer Drug Screen. Data for tumor model P388 Leukemia (intraperitoneal) in CD2F1 (CDF1) mice
measurement.parameters: endpoint: median survival time; dose: 12.5 mg/kg/injection; schedule: Q01DX009 (ip); vehicle: distilled water + Tween-80; higher = longer survival
Method: The antitumor activity of compounds was measured in mice bearing transplantable tumors. Survival or tumor size were measured and the results are expressed as the measurement made in the treated group (T) divided by the measurement made in the vehicle treated control group (C). The tumor model used in this assay is P388 Leukemia (intraperitoneal) in CD2F1 (CDF1) mice
Inconclusive results and toxic doses are left out.
Assign T/C to each entry below.

Any idea what its T/C is? The compound is `O=C(OCCc1c[nH]c2ccccc12)N(CCCl)CCCl`
109 % of control

Any idea what its T/C is? The compound is `COC(=O)c1ccc(Cl)cc1OC`
101 % of control

Any idea what its T/C is? The compound is `O=c1[nH]/c(=C/c2ccc(CO)o2)c(=O)[nH]/c1=C\c1ccc(CO)o1`
90 % of control

Any idea what its T/C is? The compound is COC1=CC(O)(CC(N)=O)c2ccccc2C1=O (centres undefined)
98 % of control
